Study System: Heparanase (Homo sapiens, UniProt Q9Y251)
Sequence (Q9Y251 36-109 limits assumed): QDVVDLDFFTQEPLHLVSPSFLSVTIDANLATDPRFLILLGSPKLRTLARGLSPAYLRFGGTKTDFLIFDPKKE
Sequence (Q9Y251 158-543 limits assumed): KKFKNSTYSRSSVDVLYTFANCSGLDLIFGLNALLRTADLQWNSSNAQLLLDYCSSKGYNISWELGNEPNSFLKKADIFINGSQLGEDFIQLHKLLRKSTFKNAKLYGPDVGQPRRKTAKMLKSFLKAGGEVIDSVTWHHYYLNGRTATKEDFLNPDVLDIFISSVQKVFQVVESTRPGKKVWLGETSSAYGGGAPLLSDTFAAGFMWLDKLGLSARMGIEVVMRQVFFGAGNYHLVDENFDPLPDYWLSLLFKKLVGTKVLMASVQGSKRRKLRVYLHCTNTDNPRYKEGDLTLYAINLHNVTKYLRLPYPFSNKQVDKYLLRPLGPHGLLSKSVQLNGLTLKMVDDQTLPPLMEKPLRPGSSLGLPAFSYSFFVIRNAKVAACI
Protocol Details: Inhibition of HPSE (unknown origin)
pIC50: −log10 of the molar value.
Measurement Label: pIC50

Structure Smiles	pIC50
CCCCCCCCCCCCCCCC(=O)C1=C(OC)[C@@H](CO)OC1=O	< 4.00

Pending molecule:
Record request: pIC50 value, item "CCCCCCCCCCCCCCCC(=O)C1=C(OC(C)C)[C@@H](CO)OC1=O"
< 4.00
